- tested system: T1, full length human GLP-1R with N-terminal FLAG tag and C-terminal GFP tag, on CHO cells (human, UniProt P43220 24-463)
- T1 construct: whole, on cells; the cell line itself is tied to UniProt P43220; also called FLAG-GLP-1R-GFP; CHO-GLP-1R
- assay name: flow cytometry, expressing minus parent CHO cells
measure: Subtraction
// print number alone

Worked cases, Subtraction given:
>>> meas_value("GLP1R-221-076 (antibody, V domains shown, IgG) VH: QVQLVESGGGVVQPGRSLRLSCAASGFTFNNYPMHWVRQAPGKGLEWVAVISYDETNKYYADSVKGRFTISRDNSKNTLYLQMNSLRAEDTAVYYCAKHMSMQEGAVTGEGQAAKEFIAWLVKGIVRADLVGDAFDVWGQGTLVTVSS VL: QSVLTQPPSVSAAPGQKVTISCSGTSSNIGNNDVSWYQQLPGTAPKLLIYENNKRHSGIPDRFSGSKSGTSATLGITGLQTGDEADYYCLTWDHSLTAYVFGGGTKLTVL")
236000
>>> meas_value("GLP1R-221-034 (antibody, V domains shown, IgG) VH: QVQLVESGGGVVQPGRSLRLSCAASGFPFSNYGMHWVRQAPGKGLEWVAVISHDRSNKYYADSVKGRFTISRDNSKNTLYLQMNSLRAEDTAVYYCAKHMSMQEGAVTGEGQAVKEFIAWLVKGRVRADLVGDAFDVWGQGTLVTVSS VL: QSVLTQPPSVSAAPGQKVTISCSGSSSNIGNNPVSWYQQLPGTAPKLLIYENDNRPSGIPDRFSGSKSGTSATLGITGLQTGDEADYYCATWDRGLSTGVFGGGTKLTVL")
223000
>>> meas_value("GLP1R-221-009 (antibody, V domains shown, IgG) VH: QVQLVESGGGVVQPGRSLRLSCAASGFIFSNYGMHWVRQAPGKGLEWVAVISDEGSNKYYADSVKGRFTISRDNSKNTLYLQMNSLRAEDTAVYYCAKHMSMQEGAVTGAGQAAKEFIAWLVKGRVRADLVGDAFDVWGQGTLVTVSS VL: QSVLTQPPSVSAAPGQKVTISCSGSSSNIGNQYVSWYQQLPGTAPKLLIYDDHKRPSGIPDRFSGSKSGTSATLGITGLQTGDEADYYCGTWDTSLSVGEFGGGTKLTVL")
220000
>>> meas_value("GLP1R-221-084 (antibody, V domains shown, IgG) VH: QVQLVESGGGVVQPGRSLRLSCAASGFAFSNYGMHWVRQAPGKGLEWVAVISSDENNKYYADSVKGRFTISRDNSKNTLYLQMNSLRAEDTAVYYCAKHMSMQEGAVTGEMQAAKEFIAWLVKGRVRADLVGDAFDVWGQGTLVTVSS VL: QSVLTQPPSVSAAPGQKVTISCSGSSSNIADNYVSWYQQLPGTAPKLLIYENNRRPSGIPDRFSGSKSGTSATLGITGLQTGDEADYYCGTWDVSLSVGMFGGGTKLTVL")
221000
>>> meas_value("GLP1R-221-075 (antibody, V domains shown, IgG) VH: QVQLVESGGGVVQPGRSLRLSCAASGFTFSNYPMHWVRQAPGKGLEWVAVISYDETNKYYADSVKGRFTISRDNSKNTLYLQMNSLRAEDTAVYYCAKHMSMQEGAVTGEGQAAKEFIAWLVKGIVRADLVGDAFDVWGQGTLVTVSS VL: QSVLTQPPSVSAAPGQKVTISCSGSGSNIGNNDVSWYQQLPGTAPKLLIYDNDKRPAGIPDRFSGSKSGTSATLGITGLQTGDEADYYCGTWDTSLSNYVFGGGTKLTVL")
242000

Fill in Subtraction for record GLP1R-221-017 (antibody, V domains shown, IgG) VH: QVQLVESGGGVVQPGRSLRLSCAASGFTFSDYGVHWVRQAPGKGLEWVAFISYDESNKYYADSVKGRFTISRDNSKNTLYLQMNSLRAEDTAVYYCAKHMSMQEGAVTGEYQAAKEFIAWLVKGRVRADLVGDAFDVWGQGTLVTVSS VL: QSVLTQPPSVSAAPGQKVTISCSGSSSNIGNTYVSWYQQLPGTAPKLLIYDDYKRPSGIPDRFSGSKSGTSATLGITGLQTGDEADYYCATWDATLNTGVFGGGTKLTVL
240000
